Data provenance: patent US20240301023A1

Assayed target: Kappa opioid receptor (KOR) (Homo sapiens (Human), UniProt P41145 1-380)
Sequence (P41145 whole entry, form in doubt): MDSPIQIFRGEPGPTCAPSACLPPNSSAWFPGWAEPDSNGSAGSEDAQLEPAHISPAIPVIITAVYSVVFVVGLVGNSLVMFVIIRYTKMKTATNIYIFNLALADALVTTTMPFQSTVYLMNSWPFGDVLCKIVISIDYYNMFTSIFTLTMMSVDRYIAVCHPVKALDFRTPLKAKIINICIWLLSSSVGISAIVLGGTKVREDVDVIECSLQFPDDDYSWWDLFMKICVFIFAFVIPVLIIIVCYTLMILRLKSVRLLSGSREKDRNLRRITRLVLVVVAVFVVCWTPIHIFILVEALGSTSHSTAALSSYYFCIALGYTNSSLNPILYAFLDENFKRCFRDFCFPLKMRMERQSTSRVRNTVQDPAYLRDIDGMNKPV
Experiment notes: cell-based or functional assay
Square brackets hold non-standard residues; d marks the D form. Phe(4-NO2) = N[C@@H](Cc1ccc([N+](=O)[O-])cc1)C(=O)O; Phe(4-Cl) = N[C@@H](Cc1ccc(Cl)cc1)C(=O)O; Sar = CNCC(=O)O

Binder	Activity (EC50, nM), cAMP assay
H-Y[Sar][Phe(4-Cl)]LK[dR]-NH2 (SMILES CC(C)C[C@H](NC(=O)[C@H](Cc1ccc(Cl)cc1)NC(=O)CN(C)C(=O)[C@@H](N)Cc1ccc(O)cc1)C(=O)N[C@@H](CCCCN)C(=O)N[C@H](CCCNC(=N)N)C(N)=O) [SEQ ID NO. 16: NH2-Tyr-Sar-(4-Cl)Phe-Leu-Lys-DArg-NH2]	26 nM
H-Y[Sar][Phe(4-NO2)]LR[dR]-{C7H14‑CONH2} [SEQ ID NO. 31: NH2-Tyr-Sar-(4-NO2)Phe-Leu-Arg-DArg-C7H14-CONH2]	2.49 nM
H-Y[Sar]FLRR-NH2 [SEQ ID NO. 2: NH2-Tyr-Sar-Phe-Leu-Arg-Arg-NH2]	8.6 nM
